In this section, each of the sequences is paired with its reported PBM E-score.
Target: Yer184c (UniProt P39961)
Sequence: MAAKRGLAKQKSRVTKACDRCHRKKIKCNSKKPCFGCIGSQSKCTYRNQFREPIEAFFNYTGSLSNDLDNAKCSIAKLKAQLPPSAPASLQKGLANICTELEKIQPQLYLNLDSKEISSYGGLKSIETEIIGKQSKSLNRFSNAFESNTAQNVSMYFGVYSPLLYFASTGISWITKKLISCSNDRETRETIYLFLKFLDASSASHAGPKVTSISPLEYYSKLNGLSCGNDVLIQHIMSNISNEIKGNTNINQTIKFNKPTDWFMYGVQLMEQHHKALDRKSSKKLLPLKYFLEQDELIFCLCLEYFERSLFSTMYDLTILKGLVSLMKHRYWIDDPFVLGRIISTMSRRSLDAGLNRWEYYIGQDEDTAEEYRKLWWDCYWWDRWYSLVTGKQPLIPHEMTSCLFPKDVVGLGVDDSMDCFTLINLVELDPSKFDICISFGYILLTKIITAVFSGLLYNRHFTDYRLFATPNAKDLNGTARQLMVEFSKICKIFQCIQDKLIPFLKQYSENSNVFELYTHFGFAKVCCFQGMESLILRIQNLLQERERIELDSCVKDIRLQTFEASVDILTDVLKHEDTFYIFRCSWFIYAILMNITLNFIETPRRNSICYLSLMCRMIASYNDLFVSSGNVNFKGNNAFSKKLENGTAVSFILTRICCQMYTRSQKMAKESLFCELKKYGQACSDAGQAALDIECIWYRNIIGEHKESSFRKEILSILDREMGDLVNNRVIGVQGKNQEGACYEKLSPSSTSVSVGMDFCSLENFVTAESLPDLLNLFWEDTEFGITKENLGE
Experiment: PBM E-score (8-mer binding enrichment) (E-score (-0.5 to 0.5)); higher = stronger / more preferred TF binding
Conditions: protein concentration: 100 nM; construct: GST-full length
The full ranking holds about 33,000 sequences; the median of “E-score (-0.5 to 0.5)” is about -0.016, and the highest 2% start at about 0.3. The list comes from a sample in which the highest values are over-represented; it also holds close analogues and randomly drawn sequences.
Answer with a number only.

Request - read-out PBM E-score | tested on Yer184c (UniProt P39961) | sequence GGTGCAGA
-0.206

---

Target: Yer184c (UniProt P39961)
Sequence: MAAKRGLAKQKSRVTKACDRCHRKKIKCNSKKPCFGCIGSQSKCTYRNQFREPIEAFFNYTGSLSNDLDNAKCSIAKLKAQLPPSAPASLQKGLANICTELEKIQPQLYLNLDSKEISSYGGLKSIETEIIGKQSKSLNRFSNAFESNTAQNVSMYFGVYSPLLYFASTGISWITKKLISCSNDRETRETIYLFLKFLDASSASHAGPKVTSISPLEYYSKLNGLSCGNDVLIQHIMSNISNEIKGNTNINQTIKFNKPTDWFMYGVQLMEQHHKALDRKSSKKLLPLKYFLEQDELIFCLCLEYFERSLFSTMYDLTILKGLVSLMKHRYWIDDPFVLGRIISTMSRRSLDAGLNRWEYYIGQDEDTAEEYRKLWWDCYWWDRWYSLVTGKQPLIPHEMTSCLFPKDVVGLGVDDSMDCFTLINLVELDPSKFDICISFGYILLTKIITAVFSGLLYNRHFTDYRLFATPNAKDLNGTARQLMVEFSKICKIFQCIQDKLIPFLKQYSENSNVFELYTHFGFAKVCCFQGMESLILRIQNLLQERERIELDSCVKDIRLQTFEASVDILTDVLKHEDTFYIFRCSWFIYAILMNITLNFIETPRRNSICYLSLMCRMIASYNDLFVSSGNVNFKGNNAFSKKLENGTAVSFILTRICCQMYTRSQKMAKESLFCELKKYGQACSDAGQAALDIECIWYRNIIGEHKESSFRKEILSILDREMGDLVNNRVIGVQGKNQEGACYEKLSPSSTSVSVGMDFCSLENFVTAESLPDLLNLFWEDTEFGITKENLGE
Experiment: PBM E-score (8-mer binding enrichment) (E-score (-0.5 to 0.5)); higher = stronger / more preferred TF binding
Conditions: protein concentration: 100 nM; construct: GST-full length
In all, about 33,000 sequences were measured (“E-score (-0.5 to 0.5)”: median about -0.016, highest 2% from about 0.3 on). The sample as a whole holds a higher share of the highest values than the screen did.
observed property: PBM E-score
Answer with a number only.

[[record]]
sequence_chain = "CCGGCTGA"
endpoint_value = 0.327

[[record]]
sequence_chain = "TGTTTTAA"
endpoint_value = 0.327

[[record]]
sequence_chain = "ACGGCGAT"
endpoint_value = 0.188

[[record]]
sequence_chain = "TCATTAAA"
endpoint_value = 0.343

[[record]]
sequence_chain = "ATATTAAA"
endpoint_value = 0.368


Sample CTATTAAA — what was its PBM E-score?
0.21

Next sequence up: GCGCCCTA
-0.135

Next sequence up: ATCGGCAT
0.267
